System: Meloidogyne hapla J2
Experiment: proportion of mobile M. hapla J2 relative to DMSO control (fraction of DMSO control); higher = more viable, less nematicidal, active = 0.7 or less
Conditions: 60 µM; 5 days; temperature: 20 °C
Kindly return True if reported proportion of mobile M. hapla J2 is no lower than 1; return False if it is lower.

>>> category_label("COc1cccc(-c2noc(CSc3ccc(Cl)cc3)n2)c1")
"True"
>>> category_label("COc1ccccc1-c1nnc(SCc2ccccc2C#N)o1")
"False"
>>> category_label("Fc1ccc(CSc2nnc(-c3ccccn3)o2)cc1")
"False"
>>> category_label("Brc1ccc(OCc2nc(-c3cccs3)no2)cc1")
"False"
>>> category_label("CC1CC(C)CN(C(=O)CSc2nnc(-c3cccc(Cl)c3)o2)C1 (stereo not drawn)")
"True"
>>> category_label("Cc1cc(OCc2nc(-c3cccnc3)no2)cc(C)c1Br")
"True"

* * *

Test system: Meloidogyne hapla J2
Assay: proportion of mobile M. hapla J2 relative to DMSO control (fraction of DMSO control); higher = more viable, less nematicidal, active = 0.7 or less
Settings: 60 µM; 5 days; temperature: 20 °C
# proportion of mobile M. hapla J2 listing for each entry below
measurement_label: proportion of mobile M. hapla J2

>>> test_value("Cc1ccc(OCc2nc(-c3ccc(F)cc3)no2)cc1C")
"1.03 (inactive)"
>>> test_value("Cc1ccc(-c2nc(-c3ccncc3)no2)c(Cl)c1")
"0.979 (inactive)"
>>> test_value("CCOc1ccccc1-c1nc(-c2ccc(NC(=O)c3ccncc3)cc2)no1")
"0.977 (inactive)"
>>> test_value("COc1ccccc1NC(=O)c1ccccc1-c1nc(-c2ccc(Cl)cc2)no1")
"0.78 (inactive)"
>>> test_value("Cc1ccc(-c2noc(COc3cccc(C)c3)n2)cc1")
"0.972 (inactive)"
>>> test_value("CC(C)(C)C(=O)CSc1nnc(-c2ccc(Cl)cc2Cl)o1")
"0.873 (inactive)"
>>> test_value("Cc1ccccc1CSc1nnc(-c2ccco2)n1C")
"1.03 (inactive)"
>>> test_value("Cc1ccc(-c2noc(COc3ccccc3Cl)n2)cc1")
"0.96 (inactive)"
>>> test_value("O=C(CSc1nnc(-c2ccc(Cl)cc2)o1)NC1CCCCC1")
"0.918 (inactive)"
>>> test_value("Cc1ccc(-c2nnc(SCC(=O)Nc3cc(C)ccc3C)o2)cc1")
"0.982 (inactive)"
>>> test_value("COc1cccc(-c2noc(COc3ccc(Cl)cc3)n2)c1")
"0.993 (inactive)"
>>> test_value("COc1cccc(-c2noc(-c3ccc(C)cc3Cl)n2)c1")
"1 (inactive)"
>>> test_value("COc1cccc(NC(=O)CSc2nnc(-c3ccc(Br)cc3)o2)c1")
"0.966 (inactive)"
>>> test_value("O=C(Nc1ccccc1-c1nc(-c2ccncc2)no1)c1ccccc1Cl")
"0.979 (inactive)"
>>> test_value("Brc1ccc(-c2noc(-c3cccs3)n2)cc1")
"0.884 (inactive)"
>>> test_value("Clc1ccc(OCc2nc(-c3cccs3)no2)cc1")
"0.923 (inactive)"
>>> test_value("Ic1cccc(-c2nc(-c3cccnc3)no2)c1")
"1.04 (inactive)"
>>> test_value("O=C(CSc1nnc(-c2ccc(Cl)cc2)o1)NCc1ccccc1")
"0.901 (inactive)"
>>> test_value("Brc1ccc(OCc2nc(-c3ccc4c(c3)OCO4)no2)cc1")
"0.943 (inactive)"
>>> test_value("CCn1c(SCc2nc(-c3ccccc3)no2)nc2ccccc21")
"1.02 (inactive)"
>>> test_value("Cc1cc(C)cc(OCc2nc(-c3cc(C)nc4ccccc34)no2)c1")
"1.02 (inactive)"
>>> test_value("Clc1ccccc1CSc1nnc(-c2ccncc2)o1")
"0.974 (inactive)"
>>> test_value("CCc1cccc(CC)c1NC(=O)CSc1nnc(-c2ccccc2OC)o1")
"0.758 (inactive)"
>>> test_value("Cc1ccc(-c2nc(-c3ccccn3)no2)cc1C")
"1.03 (inactive)"
>>> test_value("CCc1nc(-c2ccc(-c3ccccc3)nc2OC)no1")
"0.99 (inactive)"
>>> test_value("c1cncc(-c2noc(-c3cccc4ccccc34)n2)c1")
"1.04 (inactive)"
>>> test_value("O=C(CSc1nnc(-c2ccccc2)o1)N1CCc2ccccc21")
"0.993 (inactive)"
>>> test_value("CC(Oc1ccccc1)c1nc(-c2cccnc2)no1 (stereo not given)")
"1.06 (inactive)"
>>> test_value("Clc1cc(Br)ccc1OCc1nc(-c2ccccn2)no1")
"1.01 (inactive)"
>>> test_value("Cc1ccc(-c2noc(CSc3nc(C)cc(C)n3)n2)cc1")
"0.974 (inactive)"
>>> test_value("CCOc1nc(C)ccc1-c1noc(-c2cccc(C)c2)n1")
"0.847 (inactive)"
>>> test_value("Cc1ccc(-c2nc(-c3ccccc3)no2)cc1C")
"0.884 (inactive)"
>>> test_value("c1ccc(-c2noc(COc3cccc4ccccc34)n2)nc1")
"0.936 (inactive)"
>>> test_value("CCc1ccc(NC(=O)CSc2nnc(-c3ccc(Cl)cc3Cl)o2)cc1")
"0.785 (inactive)"
>>> test_value("c1cc(-c2noc(C34CC5CC(CC(C5)C3)C4)n2)ccn1")
"0.941 (inactive)"
>>> test_value("O=C(CSc1nnc(-c2ccco2)o1)Nc1ccc(F)cc1")
"0.939 (inactive)"
>>> test_value("O=C(CSc1nnc(-c2cccc(Cl)c2)o1)NC1CCCCC1")
"0.874 (inactive)"
>>> test_value("Cc1cc(OCc2nc(-c3ccncc3)no2)c(C)c(C)c1Br")
"1.06 (inactive)"
>>> test_value("Clc1ccc(-c2nc(-c3ccccc3Br)no2)cc1")
"0.984 (inactive)"
>>> test_value("c1ccc2c(-c3nc(-c4ccncc4)no3)cccc2c1")
"0.917 (inactive)"
>>> test_value("O=C(CSc1nnc(-c2ccco2)o1)Nc1cccc(Cl)c1Cl")
"0.866 (inactive)"
>>> test_value("CCOc1nc(-c2ccc(C)cc2)ccc1-c1noc(-c2cccnc2)n1")
"0.842 (inactive)"
>>> test_value("CCN(CC)C(=O)CSc1nnc(-c2ccc(Cl)cc2Cl)o1")
"1.03 (inactive)"
>>> test_value("Cc1cccc(-c2noc(COc3cc(C)ccc3C)n2)c1")
"1.04 (inactive)"
>>> test_value("Cc1cccc(-c2noc(COc3ccc(Cl)cc3)n2)c1")
"1.04 (inactive)"
>>> test_value("CC(Oc1ccc(Br)cc1)c1nc(-c2ccncc2)no1 (stereo not given)")
"0.719 (inactive)"
>>> test_value("CCOc1cc(-c2nc(-c3ccc(C)nc3OCC)no2)cc(OCC)c1OCC")
"0.908 (inactive)"
>>> test_value("CN(C)C(=O)c1ccccc1-c1nc(-c2ccc(Cl)cc2)no1")
"0.963 (inactive)"
>>> test_value("O=C(Nc1cccnc1)c1ccccc1-c1nc(-c2ccc(Cl)cc2)no1")
"0.934 (inactive)"
>>> test_value("COc1cccc(-c2noc(COc3ccc4ccccc4c3)n2)c1")
"1.04 (inactive)"

* * *

Test system: Meloidogyne hapla J2
Experiment: proportion of mobile M. hapla J2 relative to DMSO control (fraction of DMSO control); higher = more viable, less nematicidal, active = 0.7 or less
Conditions: 60 µM; 5 days; temperature: 20 °C
Kindly return TRUE if reported proportion of mobile M. hapla J2 is no lower than 0.9; return FALSE if it is lower.

>>> category_label("Clc1ccc(-c2nc(-c3ccncc3)no2)c(Cl)c1")
"TRUE"
>>> category_label("Cc1cccc(-c2noc(COc3ccc(C)cc3C)n2)c1")
"TRUE"
>>> category_label("Cc1csc(NC(=O)CSc2nnc(-c3ccccc3Cl)o2)n1")
"FALSE"
>>> category_label("Cc1ccccc1OCc1nc(-c2ccccc2)no1")
"FALSE"
>>> category_label("O=C(CSc1nnc(-c2ccccc2)o1)c1ccc(Br)cc1")
"TRUE"

* * *

Tested on: Meloidogyne hapla J2
Test: proportion of mobile M. hapla J2 relative to DMSO control (fraction of DMSO control); higher = more viable, less nematicidal, active = 0.7 or less
Settings: 60 µM; 5 days; temperature: 20 °C
Kindly return yes if reported proportion of mobile M. hapla J2 is no lower than 1; return no if it is lower.

>>> category_label("COc1ccc(Cl)cc1-c1noc(COc2ccccc2)n1")
"no"
>>> category_label("COc1ccc(-c2nnc(SCC(=O)Nc3cccc(Cl)c3Cl)o2)cc1")
"no"
>>> category_label("COc1ccc(-c2nnc(SCC(=O)Nc3c(F)cc(F)cc3Br)o2)cc1")
"yes"
>>> category_label("COc1ccc(-c2noc(-c3ccc(C)c(C)c3)n2)cc1")
"no"
>>> category_label("Cc1ccc(-c2nnc(SCc3c(C)cc(C)cc3C)o2)cc1")
"no"
>>> category_label("CC(C)C(=O)Nc1ccccc1-c1nc(-c2cccnc2)no1")
"no"
>>> category_label("Cc1ccccc1-c1noc(-c2ccc(F)cc2)n1")
"no"
>>> category_label("CCOC(=O)c1c(NC(=O)CSc2nnc(-c3ccc(Cl)cc3)o2)sc(C(C)=O)c1C")
"no"
>>> category_label("FC(F)(F)c1ccc(-c2noc(-c3ccccc3Cl)n2)cc1")
"yes"
>>> category_label("CCC(=O)Nc1ccccc1-c1nc(-c2ccncc2)no1")
"no"
>>> category_label("CC(C)Oc1ccc(-c2nc(-c3cccnc3)no2)cc1")
"no"
>>> category_label("Clc1ccccc1-c1noc(-c2ccncc2)n1")
"no"
>>> category_label("O=C(c1ccccc1-c1nc(-c2ccccc2Cl)no1)N1CCCCC1")
"no"
>>> category_label("Cc1ccc(-c2nc(-c3ccccc3Br)no2)cc1")
"no"
>>> category_label("COc1ccc(-c2noc(-c3ccccc3C(=O)Nc3ccc(NC(C)=O)cc3)n2)cc1")
"no"
>>> category_label("Cc1ccc(-c2noc(-c3ccc(Br)cc3)n2)cc1")
"yes"
>>> category_label("COc1ccc(-c2nc(-c3ccccc3Cl)no2)cc1")
"no"
>>> category_label("Cc1ccc(C)c(-c2nc(-c3cccnc3)no2)c1")
"yes"
>>> category_label("c1ccc(-c2noc(COc3ccc4c(c3)CCCC4)n2)cc1")
"no"
>>> category_label("Cc1ccc(-c2nnc(SCC(=O)Nc3nccs3)o2)cc1")
"yes"
>>> category_label("Brc1cccc(-c2nnc(SCc3ccccc3)o2)c1")
"no"
>>> category_label("COc1ccc(-c2noc(-c3ccc(C)cc3Cl)n2)cc1")
"no"
>>> category_label("CC(=O)Nc1ccc(-c2nc(-c3ccccc3)no2)cc1")
"no"
>>> category_label("COC(=O)c1ccc(NC(=O)CSc2nnc(-c3ccc(Cl)cc3Cl)o2)cc1")
"no"
>>> category_label("Clc1ccc(OCc2nc(-c3ccccc3)no2)cc1")
"yes"
>>> category_label("Clc1cc(Br)ccc1OCc1nc(-c2ccncc2)no1")
"no"
>>> category_label("CC(=O)c1cccc(NC(=O)CSc2nnc(-c3ccccc3)o2)c1")
"no"
>>> category_label("COc1ccc(Br)cc1-c1noc(-c2ccncc2)n1")
"no"
>>> category_label("O=C(CSc1nnc(-c2ccco2)o1)Nc1ccccc1F")
"no"
>>> category_label("Cc1cnnn1-c1ccc(-c2nc(-c3ccc(Cl)cc3)no2)cc1")
"no"
>>> category_label("O=C(Nc1ccc(-c2noc(-c3ccc(Cl)cc3)n2)cc1)c1ccco1")
"yes"
>>> category_label("CC(Sc1nnc(-c2ccc(C(C)(C)C)cc2)o1)C(=O)Nc1nccs1 (stereo not given)")
"no"
>>> category_label("COc1cccc(-c2noc(COc3ccccc3C)n2)c1")
"no"
